measurement.description: AUC in rat at 5 mg/kg, po
Format: ADME, organism-based
Set-up: dose 5 mg/kg, route oral
test.conditions: plasma
measurement.label: AUC (ng·h/mL)
Please reply with the bare figure in ng·h/mL and do not write the unit itself.

The reported AUC of the molecule `Cn1nc(-c2ccc(OCCCN3CCCCC3)cc2)c2ccccc2c1=O` was 14

Looking up `C[C@@H]1CCCN1CCCOc1ccc(-c2nn(C)c(=O)c3c2CCC3)cc1` , I found its AUC recorded as 5.82

---

target.entity: Histamine H3 receptor (Rattus norvegicus, UniProt Q9QYN8)
Sequence (Q9QYN8 whole entry): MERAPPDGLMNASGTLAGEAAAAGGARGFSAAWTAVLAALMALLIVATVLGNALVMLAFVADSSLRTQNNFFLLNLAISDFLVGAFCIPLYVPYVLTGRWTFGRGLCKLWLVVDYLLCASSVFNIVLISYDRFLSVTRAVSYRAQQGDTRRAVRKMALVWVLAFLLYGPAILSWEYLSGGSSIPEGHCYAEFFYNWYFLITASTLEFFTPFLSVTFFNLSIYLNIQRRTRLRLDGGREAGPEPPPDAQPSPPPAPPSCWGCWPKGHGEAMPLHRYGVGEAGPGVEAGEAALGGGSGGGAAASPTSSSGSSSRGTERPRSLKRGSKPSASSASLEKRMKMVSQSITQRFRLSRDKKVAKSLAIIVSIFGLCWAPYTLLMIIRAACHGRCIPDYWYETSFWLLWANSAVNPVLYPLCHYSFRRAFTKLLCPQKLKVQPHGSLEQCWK
measurement.description: Displacement of [3H]-NAMH from rat histamine H3 receptor expressed in CHO cells
Format: cell-based
Entries are sorted into classes by Ki as follows: label 0: < 9 nM; label 1: ≥ 9 nM and < 20 nM; label 2: ≥ 20 nM

GET /class?item= `CC(C)n1nc(-c2ccc(OCCCN3CCCCC3)cc2)c2sccc2c1=O`
label 1

State the band of `CCN(CC)CCCOc1ccc(-c2nn(C(C)C)c(=O)c3ccsc23)cc1`
label 2

Band for `C[C@@H]1CCCN1CCCOc1ccc(-c2nn(Cc3ccc(Cl)cc3)c(=O)c3ccsc23)cc1` ?
label 1

Which category fits this record: `CCCn1nc(-c2ccc(OCCCN3CCC[C@H]3C)cc2)c2sccc2c1=O`
label 1

Form field 'band' for `Cn1nc(-c2ccc(OCCCN3CCCCCC3)cc2)c2ccccc2c1=O`
label 0

Kindly identify the class of `C[C@@H]1CCCN1CCCOc1ccc(-c2nn(Cc3ccc(Cl)cc3)c(=O)c3ccccc23)cc1` .
label 1

Please indicate the class for C[C@@H]1CCCN1CCCOc1ccc(C2=NN(C)C(=O)C3CCCC23)cc1 (stereo partly specified) based on its Ki.
label 0

Kindly state the category for this compound: `CCCn1nc(-c2ccc(OCCCN3CCC(C)CC3)cc2)c2sccc2c1=O`
label 2

Textbook exercise: identify the category of the compound given here, `O=c1c2ccccc2c(-c2ccc(OCCCN3CCCCC3)cc2)nn1Cc1ccc(Cl)cc1` , according to its measured value.
label 2

Band of `C[C@@H]1CCCN1CCCOc1ccc(-c2nn(C)c(=O)c3ccccc23)cc1` ?
label 0

---

Please go through the items and note down their pIC50.
pIC50: −log10 of the molar value.

Record `Cn1nc(-c2ccc(OCCCN3CCCCC3)cc2)c2c(c1=O)CCCC2` has Cytochrome P450 2C9 (Homo sapiens, UniProt P11712) pIC50 equal to < 4.52

Short answer on Cytochrome P450 2C9 (Homo sapiens, UniProt P11712) for `C[C@@H]1CCCN1CCCOc1ccc(-c2nn(C)c(=O)c3c2CCCC3)cc1` , pIC50: < 4.52

---

target.entity: Cytochrome P450 2C19 (Homo sapiens, UniProt P33261)
Sequence (P33261 whole entry): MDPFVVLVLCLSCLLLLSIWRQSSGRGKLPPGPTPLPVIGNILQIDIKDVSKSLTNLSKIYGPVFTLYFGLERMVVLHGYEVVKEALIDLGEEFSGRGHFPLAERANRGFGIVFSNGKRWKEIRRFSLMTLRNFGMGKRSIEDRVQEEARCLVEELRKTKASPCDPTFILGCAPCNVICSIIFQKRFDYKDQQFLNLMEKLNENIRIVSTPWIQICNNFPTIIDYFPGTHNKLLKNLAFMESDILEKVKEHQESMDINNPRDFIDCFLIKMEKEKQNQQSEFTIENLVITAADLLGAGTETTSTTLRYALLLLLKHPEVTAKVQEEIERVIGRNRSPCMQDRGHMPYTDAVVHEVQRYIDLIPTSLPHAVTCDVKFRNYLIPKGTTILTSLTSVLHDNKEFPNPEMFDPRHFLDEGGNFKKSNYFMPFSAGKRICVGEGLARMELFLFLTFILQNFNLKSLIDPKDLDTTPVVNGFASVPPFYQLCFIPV
measurement.description: Inhibition of CYP2C19
Assay type: ADME
pIC50: −log10 of the molar value.
measurement.label: pIC50

// `C[C@@H]1CCCN1CCCOc1ccc(-c2nn(C)c(=O)c3c2CCC3)cc1` : pIC50 value = < 4.52

For reference, reported pIC50 for `Cn1nc(-c2ccc(OCCCN3CCCCC3)cc2)c2c(c1=O)CCCC2` stands at < 4.52

Form: compound = `Cn1nc(-c2ccc(OCCCN3CCCCC3)cc2)c2c(c1=O)CCC2` ; pIC50 = < 4.52

In plain terms, CN1N=C(c2ccc(OCCCN3CCCCC3)cc2)C2CCCC2C1=O (stereo not given) has a documented pIC50 of < 4.52

Sure, the documented pIC50 for `Cn1nc(-c2ccc(OCCCN3CCCCC3)cc2)c2ccccc2c1=O` is < 4.52

---

target.entity: UniProt:P10635
Sequence (P10635 whole entry): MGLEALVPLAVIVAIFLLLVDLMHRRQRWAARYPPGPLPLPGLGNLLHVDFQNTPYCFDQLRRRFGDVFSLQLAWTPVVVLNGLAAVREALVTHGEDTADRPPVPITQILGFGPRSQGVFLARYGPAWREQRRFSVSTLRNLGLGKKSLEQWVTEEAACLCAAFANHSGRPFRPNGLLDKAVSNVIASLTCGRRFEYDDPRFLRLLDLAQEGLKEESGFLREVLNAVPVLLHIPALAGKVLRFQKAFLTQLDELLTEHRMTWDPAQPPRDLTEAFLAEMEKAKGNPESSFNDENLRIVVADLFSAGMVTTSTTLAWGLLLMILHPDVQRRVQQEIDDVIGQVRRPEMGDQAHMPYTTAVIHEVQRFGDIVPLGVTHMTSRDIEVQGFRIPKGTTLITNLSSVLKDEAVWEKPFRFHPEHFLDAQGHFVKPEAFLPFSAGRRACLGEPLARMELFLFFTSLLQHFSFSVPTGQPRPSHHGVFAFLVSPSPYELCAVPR
Task for the reader: assign each of the following molecules its reported IC50.

Lab book: IC50 of CN1N=C(c2ccc(OCCCN3CCCCC3)cc2)C2CCCC2C1=O (configuration not stated) noted as > 30 µM

// recorded IC50 for `CC(C)n1nc(-c2ccc(OCCCN3CCC[C@H]3C)cc2)c2sccc2c1=O` : > 30 µM

---

Exercise: state measured Vd for each of the compounds provided.
measurement.description: Volume of distribution in rat at 1 mg/kg, iv
Type: ADME, organism-based
Parameters: dose 1 mg/kg, route intravenous
test.conditions: in vivo
Entry rule: numbers only, all in L/kg.

Vd in this record for `C[C@@H]1CCCN1CCCOc1ccc(-c2nn(C)c(=O)c3c2CCC3)cc1` : 3.35

Sample `CC(C)n1nc(-c2ccc(OCCCN3CCC[C@H]3C)cc2)c2sccc2c1=O` ; Vd observed: 2.98

According to the records, this compound `Cn1nc(-c2ccc(OCCCN3CCCCC3)cc2)c2ccccc2c1=O` displays Vd of 1.36

---

What Kp at 1 h was measured for each of the following?
measurement.description: Ratio of drug level in brain to plasma in ip dosed rat after 1 hr
Type: ADME, organism-based
test.conditions: read-out: BPR
Form field (numeric): enter value without unit.

The value of Kp at 1 h measured for the molecule `CC(C)n1nc(-c2ccc(OCCCN3CCC[C@H]3C)cc2)c2sccc2c1=O` turned out to be 4.07

Recorded Kp at 1 h (molecule `Cn1nc(-c2ccc(OCCCN3CCCCC3)cc2)c2ccccc2c1=O` ): 2.98

Record `C[C@@H]1CCCN1CCCOc1ccc(-c2nn(C)c(=O)c3c2CCC3)cc1` , field Kp at 1 h: 1.2

---

Here's a batch of compounds along with measured pKi for UniProt:Q9Y5N1.
Sequence (Q9Y5N1 whole entry): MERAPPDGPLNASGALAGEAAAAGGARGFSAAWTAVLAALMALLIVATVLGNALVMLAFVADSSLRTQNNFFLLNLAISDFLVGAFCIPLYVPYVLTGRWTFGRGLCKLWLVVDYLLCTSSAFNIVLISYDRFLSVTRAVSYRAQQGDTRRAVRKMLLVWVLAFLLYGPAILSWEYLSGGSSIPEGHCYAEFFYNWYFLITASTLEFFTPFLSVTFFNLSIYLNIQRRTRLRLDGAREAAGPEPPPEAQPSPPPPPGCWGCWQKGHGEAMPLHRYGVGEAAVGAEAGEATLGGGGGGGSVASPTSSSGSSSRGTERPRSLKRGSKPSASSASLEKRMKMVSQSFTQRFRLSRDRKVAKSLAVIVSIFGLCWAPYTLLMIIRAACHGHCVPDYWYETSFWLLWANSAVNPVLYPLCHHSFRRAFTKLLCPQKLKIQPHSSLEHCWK
pKi is defined as minus the log10 of a concentration measured in mol/L.

Form: compound = `CCN(CC)CCCOc1ccc(-c2nn(C(C)C)c(=O)c3ccsc23)cc1` ; pKi = 7.64

Entry under test: `C[C@@H]1CCCN1CCCOc1ccc(-c2nn(C)c(=O)c3c2CCC3)cc1` . Its pKi was 9.40

The measured pKi associated with `CC(C)n1nc(-c2ccc(OCCCN3CCC[C@H]3C)cc2)c2sccc2c1=O` reads 8.59

Sure, the documented pKi for `Cn1nc(-c2ccc(OCCN3CCCCC3)cc2)c2ccccc2c1=O` is 7.08

The compound `CC(C)n1nc(-c2ccc(OCCCN3CCCC3)cc2)c2sccc2c1=O` showed pKi equal to 8.40

The compound identified as `CC(C)n1nc(-c2ccc(OCCCN3CCCCC3)cc2)c2sccc2c1=O` registered its pKi at 8.72

Entry under test: `C[C@@H]1CCCN1CCCOc1ccc(-c2nn(C)c(=O)c3ccccc23)cc1` . Its pKi was 9.10

Per the records, this compound ( `O=c1c2ccsc2c(-c2ccc(OCCCN3CCCCC3)cc2)nn1Cc1ccc(Cl)cc1` ) has pKi equal to 7.32

# pKi of `C[C@@H]1CCCN1CCCOc1ccc(-c2nn(Cc3ccc(Cl)cc3)c(=O)c3ccccc23)cc1` = 8.34

Item: `CCCn1nc(-c2ccc(OCCCN3CCC(C)CC3)cc2)c2sccc2c1=O` | pKi: 7.64

Lab note: `C[C@@H]1CCCN1CCCOc1ccc(-c2nn(Cc3ccc(Cl)cc3)c(=O)c3ccsc23)cc1` gave pKi of 8.62

Given item `Cn1nc(-c2ccc(OCCCN3CCCCCC3)cc2)c2ccccc2c1=O` , the value recorded as its pKi is 8.85

In plain terms, `Cn1nc(-c2ccc(OCCCN3CCCCC3)cc2)c2c(c1=O)CCC2` has a documented pKi of 9.30

Form field pKi, entry C[C@@H]1CCCN1CCCOc1ccc(C2=NN(C)C(=O)C3CCCC23)cc1 (stereo partly specified) : 8.80

Looking up `Cn1nc(-c2ccc(OCCCN3CCCCC3)cc2)c2c(c1=O)CCCC2` , I see its pKi listed as 8.82

// sample `COC[C@H]1CCCN1CCCOc1ccc(-c2nn(C(C)C)c(=O)c3ccsc23)cc1` , its pKi was 5.95

---

Please go through the items and note down their clearance.
measurement.description: Clearance in rat at 1 mg/kg, iv
Assay type: ADME, organism-based
Parameters: dose 1 mg/kg, route intravenous
test.conditions: in vivo
Give the quantity in mL/min/kg, number only.

// clearance lookup, compound = `C[C@@H]1CCCN1CCCOc1ccc(-c2nn(C)c(=O)c3c2CCC3)cc1` , result: 163

Recorded clearance (compound `Cn1nc(-c2ccc(OCCCN3CCCCC3)cc2)c2ccccc2c1=O` ): 52

// sample `CC(C)n1nc(-c2ccc(OCCCN3CCC[C@H]3C)cc2)c2sccc2c1=O` , its clearance was 117

---

measurement.description: Oral bioavailability in rat at 5 mg/kg
Type: ADME, organism-based
test.conditions: in vivo
Hi there, I'd appreciate the recorded bioavailability for every entry that follows.

Reported bioavailability for `C[C@@H]1CCCN1CCCOc1ccc(-c2nn(C)c(=O)c3c2CCC3)cc1` was < 1%

bioavailability recorded for this compound, `CC(C)n1nc(-c2ccc(OCCCN3CCC[C@H]3C)cc2)c2sccc2c1=O` , is < 1%

`Cn1nc(-c2ccc(OCCCN3CCCCC3)cc2)c2ccccc2c1=O` has a reported bioavailability of < 1%
